assay comment: TOX21_p53_BLA_p2_viability: Viability Assessment in the Tox21 HCT-116 p53 Agonism Beta-lactamase Assay, Phase 2 (AID 2283591);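 also: compound exposure lasted 16 h at 37 °C; actives lower the ATP signal meaning cytotoxicity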
Results filed as inconclusive are left out. Calls of active or inactive are those of the source. The calls were made as follows: active = hit-call score of the fitted dose curve at least 0.9, where 1 is the maximum; inconclusive = response in the unintended direction; inactive = score below 0.9.
Outcomes: 1 (yes) (active), 0 (no) (inactive)

{"compound": "O=C(O)CCCc1c[nH]c2ccccc12", "class label": "0 (no)"}
{"compound": "CN(C)C(=O)Oc1cccc([N+](C)(C)C)c1", "class label": "0 (no)"}
{"compound": "C[C@@H](O)[C@H]1C(=O)N2C(C(=O)[O-])=C(SC3Cn4cnc[n+]4C3)[C@H](C)[C@H]12 (stereo partly specified)", "class label": "0 (no)"}
{"compound": "O=C(OCC1CO1)C1CCCCC1C(=O)OCC1CO1 (stereo unspecified)", "class label": "0 (no)"}
{"compound": "CC1(C)C(=O)C(C)(C)C1=O", "class label": "0 (no)"}
{"compound": "CC(=O)c1ccc2c(c1)N(CCCN(C)C)c1ccccc1S2", "class label": "0 (no)"}
{"compound": "O=S(=O)(O)c1cccc2ccccc12", "class label": "0 (no)"}
{"compound": "NC(=O)c1ncn([C@@H]2O[C@H](CO)[C@@H](O)[C@H]2O)c1N", "class label": "0 (no)"}
{"compound": "CN(C)CC/C=C1\\c2ccccc2Sc2ccc(Cl)cc21", "class label": "0 (no)"}
{"compound": "Sc1nc2ccccc2s1", "class label": "1 (yes)"}
{"compound": "CN(C)C/C=C(/c1ccc(Br)cc1)c1cccnc1", "class label": "0 (no)"}
{"compound": "O=P(O)(O)CP(=O)(O)O", "class label": "0 (no)"}
{"compound": "C[n+]1cc2c3c(ccc2c2ccc4cc5c(cc4c21)OCO5)OCO3", "class label": "1 (yes)"}
{"compound": "C/C(=C(\\CCOC(=O)c1ccccc1)SS/C(CCOC(=O)c1ccccc1)=C(/C)N(C=O)Cc1cnc(C)nc1N)N(C=O)Cc1cnc(C)nc1N", "class label": "0 (no)"}
{"compound": "CC(C)(C)NC[C@H](O)COc1ccccc1C1CCCC1", "class label": "0 (no)"}
{"compound": "OCCOCCOCCOCCOCCO", "class label": "0 (no)"}
{"compound": "CN(C)CCC(c1ccc(Cl)cc1)c1ccccn1 (stereo unspecified)", "class label": "0 (no)"}
{"compound": "N#C/C(=C1\\SCC(c2ccccc2Cl)S1)n1ccnc1 (stereo unspecified)", "class label": "0 (no)"}
{"compound": "O=C1c2ccccc2-c2ccccc21", "class label": "0 (no)"}
{"compound": "CC(=O)[C@H]1CC[C@H]2[C@@H]3C=CC4=CC(=O)CC[C@@]4(C)[C@@H]3CC[C@]12C", "class label": "0 (no)"}
{"compound": "CC(C)(C)C(=O)OCOC(=O)C1N2C(=O)CC2S(=O)(=O)C1(C)C (stereo unspecified)", "class label": "0 (no)"}
{"compound": "CC(C)CC(=O)CC(C)CC(C)C (stereo unspecified)", "class label": "0 (no)"}
{"compound": "O=c1[nH]ncc2ccccc12", "class label": "0 (no)"}
{"compound": "CCC(=O)c1ccc(O)cc1", "class label": "0 (no)"}
{"compound": "CC(=O)NCCCCCC(=O)O", "class label": "0 (no)"}
{"compound": "Oc1c(Cl)cc(Cl)c2cccnc12", "class label": "0 (no)"}
